Values were extracted from PubChem BioAssay AID1159580.

Test: chemical genetic growth profiling, strain panel (AID 1159580);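 further: tested at 20 µM; growth read once vehicle control cultures reached saturation at 30 °C; 1 = growth at the plate median or of vehicle wells; lower values mean less growth of the strain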
Settings: S. cerevisiae deletion strains, growth OD, locus YLR258W, strain gsy2
Screen size: about 5,500 compounds; about 2,000 (36%) were called active. Another 18% or so got no clear call; they are omitted. No stated cut-off is given here; in the data, active means normalized growth mostly below about 0.91 (no sharp cut-off); inconclusive means no clear call, values can overlap the other calls; inactive means mostly above about 0.92. The list shows a part of the results.
Give one outcome, nothing more. List: active, inactive

These solved cases illustrate the format of a correct answer.
{"molecule": "O=C(CCCN1CCC2(CC1)C(=O)NCN2c1ccccc1)c1ccc(F)cc1", "assigned.category": "inactive"}
{"molecule": "O=C(O)C1=CC(=C(c2ccc(O)c(C(=O)O)c2)c2ccc(O)c(C(=O)O)c2)C=CC1=O", "assigned.category": "inactive"}
{"molecule": "COC(=O)NC(=S)Nc1ccccc1NC(=S)NC(=O)OC", "assigned.category": "inactive"}
{"molecule": "OC1(c2ccc(Cl)c(C(F)(F)F)c2)CCN(CCCC(c2ccc(F)cc2)c2ccc(F)cc2)CC1", "assigned.category": "active"}
{"molecule": "CC12CCC(=O)C=C1CCc1ccccc12 (stereo unspecified)", "assigned.category": "inactive"}

Can you look up the reported call for CC(=O)O[C@@H]1CC2C(C)(CC[C@H](O)C2(C)C)C2CC[C@]3(C)C(=CC(=O)O[C@H]3c3ccoc3)C21C (stereo partly specified) for me? inactive

Can you look up the reported call for O=C(CCCN1CCN(c2ccccn2)CC1)c1ccc(F)cc1 for me? inactive

Can you look up the reported call for Cc1ccc(-c2nc3ccc(C)cn3c2CC(=O)N(C)C)cc1 for me? inactive

Can you look up the reported call for COC(=O)C[C@H]1C(C)(C)[C@@H](O)[C@@H]2CC3=C4CC(O)O[C@@H](c5ccoc5)[C@]4(C)CCC3[C@@]1(C)C2=O (stereo partly specified) for me? inactive

Can you look up the reported call for CCCc1nc(C)c2c(=O)[nH]c(-c3cc(S(=O)(=O)N4CCN(CC)CC4)ccc3OCC)nn12 for me? inactive

Can you look up the reported call for C[C@H]1[C@H](C)CC[C@]2(C(=O)O)CC[C@]3(C)C(=CCC4[C@@]5(C)C[C@@H](O)[C@H](O)[C@@](C)(CO)C5CC[C@]43C)[C@H]12 (stereo partly specified) for me? inactive

Can you look up the reported call for COc1cccc2c1CCC1=CC(=O)CC[C@@]12C for me? inactive

Can you look up the reported call for CN(C)C(=O)C(CCN1CCC(O)(c2ccc(Cl)cc2)CC1)(c1ccccc1)c1ccccc1 for me? inactive

Can you look up the reported call for CSc1nc(NC(C)C)nc(NC(C)C)n1 for me? inactive

Can you look up the reported call for O=S(=O)(O)O for me? inactive

Can you look up the reported call for CC(C)Nc1nc(Cl)nc(NC(C)C)n1 for me? inactive

Can you look up the reported call for COC1=CC(=O)C=C(OC)C1=O for me? inactive

Can you look up the reported call for C[C@@H]1CC[C@@]23CCC4(C)[C@@](C=CC5[C@@]6(C)CC[C@H](O)C(C)(C)C6CC[C@]54C)(OC2=O)C3[C@H]1C (stereo partly specified) for me? inactive

###

Assay: chemical genetic growth profiling, strain panel (AID 1159580)
Conditions: S. cerevisiae deletion strains, growth OD, locus YCL061C, strain MRC1 (second series)
Screen size: about 5,500 compounds; about 2,000 (36%) were called active. Another 18% or so got no clear call; they are omitted. No stated cut-off is given here; in the data, active means normalized growth mostly below about 0.91 (no sharp cut-off); inconclusive means no clear call, values can overlap the other calls; inactive means mostly above about 0.92. This is one part of the list.
Give one outcome, nothing more. List: active, inactive

{"smiles.code": "COc1ccccc1N1CCN(CCCCN2C(=O)c3ccccc3C2=O)CC1", "assigned.category": "inactive"}
{"smiles.code": "O=C(CCCN1CCC(O)(c2ccc(Cl)cc2)CC1)c1ccc(F)cc1", "assigned.category": "inactive"}
{"smiles.code": "COc1ccccc1N1CCN(CCCNc2cc(=O)n(C)c(=O)n2C)CC1", "assigned.category": "inactive"}
{"smiles.code": "N#C/C(=C\\c1c[nH]c2ccccc12)C(=O)c1ccc(O)c(O)c1", "assigned.category": "inactive"}
{"smiles.code": "O=C(CCCN1CCC2(CC1)C(=O)NCN2c1ccccc1)c1ccc(F)cc1", "assigned.category": "inactive"}
{"smiles.code": "CC(=O)N1CCN(c2ccc(OC[C@H]3CO[C@](Cn4ccnc4)(c4ccc(Cl)cc4Cl)O3)cc2)CC1", "assigned.category": "active"}

Can you look up the reported call for O=C1NCN(c2ccccc2)C12CCN(CCCC(c1ccc(F)cc1)c1ccc(F)cc1)CC2 for me? inactive

Can you look up the reported call for Cc1cc(N)c2ccccc2[n+]1CCCCCCCCCC[n+]1c(C)cc(N)c2ccccc21 for me? active

Can you look up the reported call for NCCCCN for me? inactive

Can you look up the reported call for CN(C)C(=O)C(CCN1CCC(O)(c2ccc(Cl)cc2)CC1)(c1ccccc1)c1ccccc1 for me? inactive

Can you look up the reported call for N#CC(=C(\N)Sc1ccccc1N)/C(C#N)=C(/N)Sc1ccccc1N for me? inactive

###

Test: chemical genetic growth profiling, strain panel (AID 1159580)
Settings: S. cerevisiae deletion strains, growth OD, locus YBR009C, strain hhf1, active compounds read low
In all, about 5,500 compounds went through this assay and about 2,000 (36%) were called active. Inconclusive results (about 18%) are left out. The list shows a part of the results.
quantity: normalized growth
Respond using a number only.

# count of solved cases: 2
{"compound": "O=c1c(O)cc([C@H]2Oc3cc(O)cc(O)c3C[C@H]2O)cc2c([C@H]3Oc4cc(O)cc(O)c4C[C@H]3O)cc(O)c(O)c12", "normalized growth": 1.04}
{"compound": "CC1Cc2ccccc2N1NC(=O)c1ccc(Cl)c(S(N)(=O)=O)c1 (stereo unspecified)", "normalized growth": 0.996}

Tell me normalized growth reported for O=C(O)c1ccccc1O 0.996

Tell me normalized growth reported for COc1cccc2c1CCC1=CC(=O)CC[C@@]12C 0.992

Tell me normalized growth reported for NC(=O)c1ccccc1O 1.04

Tell me normalized growth reported for NS(=O)(=O)c1cc2c(cc1C(F)(F)F)NC(Cc1ccccc1)NS2(=O)=O (stereo unspecified) 0.988

###

Test: chemical genetic growth profiling, strain panel (AID 1159580);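 further: tested at 20 µM; growth read once vehicle control cultures reached saturation at 30 °C; 1 = growth at the plate median or of vehicle wells; lower values mean less growth of the strain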
Conditions: S. cerevisiae deletion strains, growth OD, locus YNL307C, strain MCK1
In all, about 5,500 compounds went through this assay and about 2,000 (36%) were called active. About 18% were inconclusive and are not listed. Cut-off read from the data, not from the text of the source: active = normalized growth mostly below about 0.91 (no sharp cut-off); inconclusive = no clear call, values can overlap the other calls; inactive = mostly above about 0.92. The list shows a part of the results.
Give one outcome, nothing more. List: active, inactive

These solved cases illustrate the format of a correct answer.
{"compound": "C/C=C(\\C)C(=O)O[C@@H]1c2c(ccc3ccc(=O)oc23)OC(C)(C)[C@@H]1OC(C)=O", "assigned.category": "inactive"}
{"compound": "Cc1ccc(C(C)C)c(O)c1C(=O)O", "assigned.category": "inactive"}
{"compound": "CCOC(=O)C1=C(O)C(=O)N(Cc2ccccc2)C1", "assigned.category": "inactive"}
{"compound": "CC1CCCC(C)N1NC(=O)c1ccc(Cl)c(S(N)(=O)=O)c1 (configuration not stated)", "assigned.category": "inactive"}

Could you now consider this next compound?
Can you look up the reported call for CC1=CC(=O)C2C(C)(C)CCC[C@]2(C)[C@@]1(O)CCc1ccoc1 (some centres not stated) for me? inactive

###

Assay: chemical genetic growth profiling, strain panel (AID 1159580);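 further: tested at 20 µM; growth read once vehicle control cultures reached saturation at 30 °C; 1 = growth at the plate median or of vehicle wells; lower values mean less growth of the strain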
Details: S. cerevisiae deletion strains, growth OD, locus YOL012C, strain htz1
In all, about 5,500 compounds went through this assay and about 2,000 (36%) were called active. Another 18% or so got no clear call; they are omitted. Rule as the data show it: active = normalized growth mostly below about 0.91 (no sharp cut-off); inconclusive = no clear call, values can overlap the other calls; inactive = mostly above about 0.92. The list shows a part of the results.
Give one outcome, nothing more. List: T for active, F for inactive

Can you look up the reported call for CC1(C)C(O)CC(=O)C2(C)C1CC(O)C1(C)C2CCC2(C)C(c3ccoc3)OC(=O)C3OC321 (centres undefined) for me? F

###

Assay: chemical genetic growth profiling, strain panel (AID 1159580);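 further: tested at 20 µM; growth read once vehicle control cultures reached saturation at 30 °C; 1 = growth at the plate median or of vehicle wells; lower values mean less growth of the strain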
Conditions: S. cerevisiae deletion strains, growth OD, locus YDR297W, strain sur2, active compounds read low
Among all 5,500 compounds or so, about 2,000 (36%) were called active. Not shown: some 18% with an inconclusive outcome. The list shows a part of the results.
The entries below are paired with their reported normalized growth.
Respond using a number only.

# count of solved cases: 5
{"compound": "COC1CC(O[C@H]2CC[C@]3(C=O)C4CC[C@]5(C)C(C6=CC(=O)OC6)CC[C@]5(O)C4CC[C@]3(O)C2)OC(C)C1O (stereo not given in full)", "result.value": 0.999}
{"compound": "COc1ccc(-c2cc(=O)c3c(OC)c(OC)c(OC)c(OC)c3o2)cc1OC", "result.value": 0.986}
{"compound": "COC(=O)NC(=S)Nc1ccccc1NC(=S)NC(=O)OC", "result.value": 0.984}
{"compound": "CC(C)C[C@@H](NC(=O)OCC1c2ccccc2-c2ccccc21)C(=O)O", "result.value": 1}
{"compound": "O=C(CCCN1CCC(O)(c2ccc(Cl)cc2)CC1)c1ccc(F)cc1", "result.value": 0.972}

Tell me normalized growth reported for NC[C@H]1O[C@H](O[C@H]2[C@H](O)[C@@H](O[C@H]3O[C@H](CO)[C@@H](O)[C@H](N)[C@H]3O)[C@H](N)C[C@@H]2N)[C@H](N)[C@@H](O)[C@@H]1O 0.986

Tell me normalized growth reported for COP(N)(=O)SC (stereo not given) 1

Tell me normalized growth reported for O=C(CCCN1CCN(c2ccccn2)CC1)c1ccc(F)cc1 0.972

Tell me normalized growth reported for C[C@@H](CO)NC(=O)C1C=C2c3cccc4[nH]cc(c34)C[C@H]2N(C)C1 (stereo not given in full) 1.03

Tell me normalized growth reported for NC(=O)c1ccccc1O 0.981

Tell me normalized growth reported for COc1ccc(-c2cc(=O)c3c(O)c(OC)c(O[C@H]4O[C@H](CO[C@@H]5O[C@@H](C)[C@H](O)[C@@H](O)[C@H]5O)[C@@H](O)[C@H](O)[C@H]4O)cc3o2)cc1 0.988

Tell me normalized growth reported for O=C(O)c1ccccc1O 0.984

Tell me normalized growth reported for OC1(c2ccc(Cl)c(C(F)(F)F)c2)CCN(CCCC(c2ccc(F)cc2)c2ccc(F)cc2)CC1 0.0586

Tell me normalized growth reported for COC(=O)[C@H]1[C@H]2C[C@H]3c4[nH]c5cc(OC)ccc5c4CCN3C[C@H]2C[C@@H](OC(=O)c2cc(OC)c(OC)c(OC)c2)[C@@H]1OC 1.01
